Test system: adenylyl cyclase
Experiment: FSK stimulation in the CRE-luc reporter gene assay system
Assay type: cell-based
Conditions: read-out: EC50 value of FSK in reporter gene assay system; data not shown
assay-metric: EC50 (nM)
Return type: number; implicit unit nM.

Qu. Entry C=C[C@@]1(C)CC(=O)[C@]2(O)[C@@]3(C)[C@@H](O)CCC(C)(C)[C@@H]3[C@H](O)[C@H](OC(C)=O)[C@@]2(C)O1 [FSK] needs its EC50 filled in; supply it.
Ans. 780

Data provenance: paper PMC4306921
